Biological target: human TPH1 (Homo sapiens (Human), UniProt P17752)
Sequence (P17752 whole entry): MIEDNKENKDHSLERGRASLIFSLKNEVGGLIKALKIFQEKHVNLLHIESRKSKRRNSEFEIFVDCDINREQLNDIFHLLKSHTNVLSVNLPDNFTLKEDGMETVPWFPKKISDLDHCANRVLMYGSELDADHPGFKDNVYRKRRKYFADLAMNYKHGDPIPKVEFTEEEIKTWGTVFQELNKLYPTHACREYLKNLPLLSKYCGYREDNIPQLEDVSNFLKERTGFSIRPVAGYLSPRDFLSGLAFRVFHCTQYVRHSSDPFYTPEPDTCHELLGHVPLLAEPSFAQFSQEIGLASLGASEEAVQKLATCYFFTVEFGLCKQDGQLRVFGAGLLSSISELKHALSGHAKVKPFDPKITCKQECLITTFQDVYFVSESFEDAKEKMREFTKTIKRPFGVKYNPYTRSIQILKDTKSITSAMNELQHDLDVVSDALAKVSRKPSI
Assay: Biochemical in vitro assay using fluorescence readout (TPH1 inhibition)
Conditions: full length human TPH1, 40 μM L-tryptophan, 15° C., 60 minutes, fluorescence at 540 nm; mean if determined several times
Reported values of IC50 for individual entries
MEASURE: IC50

- Cc1nn2c3c(nc2s1)CCN(C(=O)COc1ccc(N2CCOCC2)nc1Cl)C3c1csc(CN(C)C)c1 (stereo not shown): 51 nM
- Cc1nn2c3c(nc2s1)CCN(C(=O)COc1ccc(N2CC(F)(F)C2)nc1Cl)C3c1ccc(Cl)cc1F (stereo not shown): 3 nM
- Cc1nn2c3c(nc2s1)CCN(C(=O)COc1ccc(NS(C)(=O)=O)nc1Cl)C3c1ncc(C(=O)N(C)C)s1 (stereo not shown): 40 nM
- Cc1nn2c3c(nc2s1)CCN(C(=O)COc1ccc(N2CCOCC2)nc1Cl)C3c1cc(-c2nn[nH]n2)cs1 (stereo not shown): 23 nM
- Cc1nn2c3c(nc2s1)CCN(C(=O)COc1ccc(N)nc1Cl)C3c1ccc(Cl)cc1F (stereo not shown): 10 nM
- Cc1nn2c3c(nc2s1)CCN(C(=O)COc1ccc(C(=O)NCC#N)nc1Cl)C3c1ccc(Cl)cc1F (stereo not shown): 247 nM
- COCCN(C)c1ccc(OCC(=O)N2CCc3nc4sc(C)nn4c3C2c2ccc(Cl)cc2F)c(Cl)n1 (stereo not shown): 3 nM

----------
Target: human TPH1 (Homo sapiens (Human), UniProt P17752)
Experiment: Biochemical in vitro assay using fluorescence readout (TPH1 inhibition)
Conditions: human TPH1, fluorescence readout
pIC50: −log10 of the molar value.
MEASURE: pIC50

* O=C(COc1ccc(NS(=O)(=O)C2CC2)nc1Cl)N1CCc2nc3sccn3c2C1c1sccc1F (stereo not shown) | 7.82
* CNC(=O)c1cc(F)c(C2c3c(nc4sc(C)nn34)CCN2C(=O)COc2ccc(N3CC(F)(F)C3)nc2Cl)s1 (stereo not shown) | 8.15
* Cc1nn2c3c(nc2s1)CCN(C(=O)COc1cccnc1Cl)C3c1sc(C(=O)N(C)C)cc1F (stereo not shown) | 7.19
* CS(=O)(=O)Nc1ccc(OCC(=O)N2CCc3nc4sc(CF)nn4c3C2c2ccc(Cl)cc2F)c(Cl)n1 (stereo not shown) | 8.10

----------
Target: human TPH1 (Homo sapiens (Human))
Assay: Biochemical in vitro assay using fluorescence readout (TPH1 inhibition)
Conditions: human TPH1, fluorescence readout
pIC50: −log10 of the molar value.
MEASURE: pIC50

- Cc1cc(Cl)ccc1OCC(=O)N1CCc2nc3sccn3c2C1c1cnn(-c2ccccc2)c1 (stereo not shown): 7.59
- CCc1nn2c3c(nc2s1)CCN(C(=O)COc1ccc(C#N)cc1Cl)C3c1ccc(Cl)cc1F (stereo not shown): 7.82
- Cc1nn2c3c(nc2s1)CCN(C(=O)COc1ccc(C(=O)N(C)C)nc1Cl)C3c1cc(F)ccc1F (stereo not shown): 7.52
- O=C(COc1cccnc1Cl)N1CCc2nc3sccn3c2C1c1ccc(C(F)F)cc1F (stereo not shown): 7.82

----------
Target: human TPH1 (Homo sapiens (Human), UniProt P17752)
Assay: Biochemical in vitro assay using fluorescence readout (TPH1 inhibition)
Details: human TPH1, fluorescence readout
Lab note: anything with IC50 below 10 nM is marked Fulfilled; values at 10 nM or higher are marked Not fulfilled.

- Cc1nn2c3c(nc2s1)CCN(C(=O)COc1ccc(F)cc1F)C3c1ccc(C2CC2)cc1F (stereo not shown): Not fulfilled
- Cc1nc(C)c(C2c3c(nc4sc(C)nn34)CCN2C(=O)COc2ccc(N(C)S(C)(=O)=O)nc2Cl)s1 (stereo not shown): Fulfilled
- Cc1nn2c3c(nc2s1)CCN(C(=O)COc1ccc(C(=O)NC2CC2)nc1Cl)C3c1ccc(C(C)(C)O)cc1F (stereo not shown): Not fulfilled
- Cc1cnc(C2c3c(nc4sc(C)nn34)CCN2C(=O)COc2ccc(NS(C)(=O)=O)nc2Cl)c(F)c1 (stereo not shown): Fulfilled
- O=C(COc1cccnc1Cl)N1CCc2nc3sccn3c2C1c1nc2ccccc2s1 (stereo not shown): Not fulfilled
- CS(=O)(=O)Nc1ccc(OCC(=O)N2CCc3nc4sc(C5CC5)nn4c3C2c2ccc(Cl)cc2F)c(Cl)n1 (stereo not shown): Not fulfilled
